system: SF-539; assay: NCI tumour cell line growth inhibition, 48 h
The source made the active and inactive calls. Rule as the data show it: active = GI50 up to about 1.1 µM and inactive = higher.

>  <molecule>
O=c1c2cccnc2[nH]c2ccc3[nH]ncc3c12

>  <GI50>
> 10 µM (inactive)

$$$$
>  <molecule>
COc1cc(/C=N/n2c(Cc3ccc(Cl)cc3)n[nH]c2=O)cc(OC)c1OC

>  <GI50>
44.8 µM (inactive)

$$$$
>  <molecule>
C[C@H](NC(=O)C(C)(Cc1ccc(O)cn1)NC(=O)c1ccccc1)c1ccccc1 (some centres undefined)

>  <GI50>
> 100 µM (inactive)

$$$$
>  <molecule>
Cc1cc(C)n(-c2nsc3ccccc23)n1

>  <GI50>
> 100 µM (inactive)

$$$$
>  <molecule>
Cc1ccc2c3c1O[C@H]1c4nc5ccccc5cc4C[C@@]4(O)[C@@H](C2)N(CC2CC2)CC[C@]314

>  <GI50>
4.68 µM (inactive)

$$$$
>  <molecule>
CC(C)=CCC/C(C)=C/CC/C(C)=C/CC/C(C)=C/CC/C(C)=C/CC/C(C)=C/CC/C(C)=C/CC/C(C)=C/CC/C(C)=C/CO

>  <GI50>
> 100 µM (inactive)

$$$$
>  <molecule>
COc1ccc2oc(-c3ccc(OC)c(OC)c3OC)cc(=O)c2c1

>  <GI50>
31.2 µM (inactive)

$$$$
>  <molecule>
CN(CCNC(=O)c1cn(C)c2c1ccc1cc(Cl)ccc12)CCNC(=O)c1cn(C)c2c1ccc1cc(Cl)ccc12

>  <GI50>
4.78 µM (inactive)

$$$$
>  <molecule>
CC(C)(C)OC(=O)C1/C(=C/CO)CN1C(=O)OC(C)(C)C (centres undefined)

>  <GI50>
> 100 µM (inactive)

$$$$

* * *

tested on: ACHN; test: NCI tumour cell line growth inhibition, 48 h
Activity calls are given as the source filed them. Rule as the data show it: active = GI50 up to about 1.1 µM and inactive = higher.
Labels: true (1) = active, false (0) = inactive

>  <molecule>
COc1ccccc1/C=C(\NC(=O)c1ccccc1)c1nc2ccc(Cl)cc2[nH]1

>  <tested system>
ACHN

>  <qualitative label>
false (0)

$$$$
>  <molecule>
COc1ccc(N2C(=O)C3c4[nH]c5ccccc5c4C4CCCCCCCCCC4C3C2=O)cc1 (stereo not given)

>  <tested system>
ACHN

>  <qualitative label>
false (0)

$$$$
>  <molecule>
Cc1cc(C)c2c(c1)C/C(=C\c1ccccc1C(=O)O)C2=O

>  <tested system>
ACHN

>  <qualitative label>
false (0)

$$$$
>  <molecule>
Nc1nc(=O)c2cc(NCc3ccc(C(=O)NC(CCC(=O)O)C(=O)O)cc3)ccc2[nH]1 (stereo not given)

>  <tested system>
ACHN

>  <qualitative label>
false (0)

$$$$
>  <molecule>
C=CC(=O)N1C/C(=C\c2ccc(F)cc2)C(=O)/C(=C/c2ccc(F)cc2)C1

>  <tested system>
ACHN

>  <qualitative label>
true (1)

$$$$

* * *

system: DU-145; assay: NCI tumour cell line growth inhibition, 48 h
The source made the active and inactive calls. No stated cut-off is given here; in the data, active = GI50 up to about 1.1 µM and inactive = higher.
metric name: GI50

>  <molecule>
O=c1ss/c(=N\c2ccccc2)n1-c1ccccc1

>  <tested system>
DU-145

>  <result>
16.9 µM (inactive)

$$$$
>  <molecule>
Cc1ccc([N+](=O)[O-])cc1S(=O)(=O)Nc1ccc(C2=NN(S(=O)(=O)c3cc([N+](=O)[O-])ccc3C)C(c3ccccc3O)C2)cc1 (centres undefined)

>  <tested system>
DU-145

>  <result>
> 100 µM (inactive)

$$$$
>  <molecule>
CC(C)=CCC/C(C)=C/CC/C(C)=C/CC/C(C)=C/CC/C(C)=C/CC/C(C)=C/CC/C(C)=C/CC/C(C)=C/CC/C(C)=C/CO

>  <tested system>
DU-145

>  <result>
> 100 µM (inactive)

$$$$
>  <molecule>
CC(=O)c1cc2ccccc2oc1=O

>  <tested system>
DU-145

>  <result>
> 100 µM (inactive)

$$$$
>  <molecule>
COc1ccc(/C=C2\C(=O)NC(=O)c3ccccc32)cc1OC

>  <tested system>
DU-145

>  <result>
> 100 µM (inactive)

$$$$
>  <molecule>
COC(=O)c1c(CC(Cc2ccc3c(c2)CCCC3)C(=O)O)ccc2c1CCCC2 (centres undefined)

>  <tested system>
DU-145

>  <result>
39.6 µM (inactive)

$$$$
>  <molecule>
OC1(c2ccc3ccccc3c2)c2ccc3ccccc3c2C2=NCCN21 (centres undefined)

>  <tested system>
DU-145

>  <result>
> 100 µM (inactive)

$$$$
>  <molecule>
O=C1CSC(c2cccc(Cl)c2)N1c1ccc(-n2c(-c3ccccc3)nc3ccccc3c2=O)cc1 (centres undefined)

>  <tested system>
DU-145

>  <result>
> 100 µM (inactive)

$$$$
>  <molecule>
COc1c(OC(C)C)c(OC(C)C)c2oc(=O)n3c2c1C(c1ccccc1-n1c(C)ccc1C)C=C3 (centres undefined)

>  <tested system>
DU-145

>  <result>
60.4 µM (inactive)

$$$$
>  <molecule>
O=c1[nH]c2ccc(CC(=S)N3CCCCC3)cc2s1

>  <tested system>
DU-145

>  <result>
> 100 µM (inactive)

$$$$
>  <molecule>
COc1ccc(C2=NOC(N)(c3ccc(OC)cc3)C2)cc1 (centres undefined)

>  <tested system>
DU-145

>  <result>
> 100 µM (inactive)

$$$$
>  <molecule>
CC(C)C(/C=C/c1ccccc1)=N\NC(=S)NN

>  <tested system>
DU-145

>  <result>
> 100 µM (inactive)

$$$$
>  <molecule>
COC(=O)c1cccc(C)c1C1CN=NC12Cc1cc(C)cc(C)c1C2=O (centres undefined)

>  <tested system>
DU-145

>  <result>
41.3 µM (inactive)

$$$$
>  <molecule>
Cc1c(C(=O)OCc2ccccc2)[n+]([O-])c2ccccc2[n+]1[O-]

>  <tested system>
DU-145

>  <result>
19.9 µM (inactive)

$$$$
>  <molecule>
O=C1CC(Cc2n[nH]c3c2CCCC3)CC(=O)N1

>  <tested system>
DU-145

>  <result>
> 100 µM (inactive)

$$$$
>  <molecule>
Cc1cn([C@@H]2O[C@H](CO[Si](C)(C)C(C)(C)C)[C@]3(O[C@H]3C(=O)NN)[C@H]2O[Si](C)(C)C(C)(C)C)c(=O)[nH]c1=O

>  <tested system>
DU-145

>  <result>
6.31 µM (inactive)

$$$$
>  <molecule>
CCCCCCCCCCCCCCNC(=O)CCC(NC(=O)c1ccc(N(C)Cc2cnc3nc(N)nc(N)c3n2)cc1)C(=O)NCCCCCCCCCCCCCC (centres undefined)

>  <tested system>
DU-145

>  <result>
13.9 µM (inactive)

$$$$
>  <molecule>
O=C1C(Cl)=C(N2CCC[C@@H]2CO)C(=O)c2c(O)ccc(O)c21

>  <tested system>
DU-145

>  <result>
1.84 µM (inactive)

$$$$
>  <molecule>
CN(CCCNC(=O)c1nn(-c2ccc(Cl)cc2Cl)c2c1Cc1ccccc1-2)CCCNC(=O)c1nn(-c2ccc(Cl)cc2Cl)c2c1Cc1ccccc1-2

>  <tested system>
DU-145

>  <result>
1.77 µM (inactive)

$$$$

* * *

Readings of GI50 for the listed molecules
system: OVCAR-3; experiment: NCI tumour cell line growth inhibition, 48 h
Calls of active or inactive are those of the source. Rule as the data show it: active = GI50 up to about 1.1 µM and inactive = higher.

>  <molecule>
CC(C)NCC(O)c1ccc(OCc2ccccc2)c(OCc2ccccc2)c1-c1ccccc1 (stereo unspecified)

>  <GI50>
1.8 µM (inactive)

$$$$
>  <molecule>
c1ccc(CN(Cn2cccn2)Cn2cccn2)nc1

>  <GI50>
> 100 µM (inactive)

$$$$
>  <molecule>
O=C1C(/N=N/c2ccc(-c3nc4ccccc4[nH]3)cc2)NC(=S)N1c1ccccc1 (stereo unspecified)

>  <GI50>
> 100 µM (inactive)

$$$$
>  <molecule>
CCOC(=O)/C(C[C@H]1OC(C)(C)O[C@@H]1[C@H]1COC(C)(C)O1)=N/O

>  <GI50>
> 100 µM (inactive)

$$$$
>  <molecule>
Cc1ccc([N+](=O)[O-])cc1S(=O)(=O)Nc1ccc(C2=NN(S(=O)(=O)c3cc([N+](=O)[O-])ccc3C)C(c3ccccc3O)C2)cc1 (stereo unspecified)

>  <GI50>
67.3 µM (inactive)

$$$$
>  <molecule>
O=C1/C(=C/c2ccccc2)CCCC1CN1CCCCC1 (stereo unspecified)

>  <GI50>
1.71 µM (inactive)

$$$$

* * *

system: K562; experiment: NCI tumour cell line growth inhibition, 48 h
The source made the active and inactive calls. Rule as the data show it: active = GI50 up to about 1.1 µM and inactive = higher. Non-standard residues stand in square brackets, D forms with d. Residues, ends and D or L forms follow the SMILES beside them. ΔPro = O=C(O)[CH]1C=CCN1
Outcomes: 1.0 for active, 0.0 for inactive

>  <compound>
C(#C[C@@]12CCC[C@@H]1NCO2)c1ccc2c(c1)OCO2

>  <qualitative label>
0.0

$$$$
>  <compound>
O=c1[nH]nc(-c2ccccc2)c(-c2ccccc2)c1-n1nc(-c2ccccc2)c2ccccc2c1=O

>  <qualitative label>
0.0

$$$$
>  <compound>
NC(=O)N/N=C\c1ccccc1OCc1cccc(COc2ccccc2/C=N\NC(N)=O)n1

>  <qualitative label>
0.0

$$$$
>  <compound>
CN1C(=O)C2(C=CC(O)CC2)c2ccccc21 (stereo not drawn)

>  <qualitative label>
0.0

$$$$
>  <compound>
CCOc1ccc(/N=N/c2ccc3oc(=O)c(/C(C)=N\NC(=O)CC(=O)Nc4ccc(Cl)cc4)cc3c2)cc1

>  <qualitative label>
0.0

$$$$
>  <compound>
Oc1ccccc1C(Sc1nc2ccccc2s1)Sc1nc2ccccc2s1

>  <qualitative label>
0.0

$$$$
>  <compound>
COc1ccc2cc(/C=N\NC(=O)Nc3ccc([N+](=O)[O-])cc3)ccc2c1

>  <qualitative label>
0.0

$$$$
>  <compound>
Cc1ccc(/N=N/C(=NNC(=O)c2ccc(C)cc2)c2ccc(N(C)C)cc2)cc1

>  <qualitative label>
0.0

$$$$
>  <compound>
COc1ccc(-c2cc(-c3ccc(Cl)cc3)n(C3OC(CO)C(O)C(O)C3O)c(=S)c2C#N)cc1 (stereo not drawn)

>  <qualitative label>
0.0

$$$$
>  <compound>
COc1cc2c(cc1OC)C1Cc3ccccc3CCN1CC2 (stereo not drawn)

>  <qualitative label>
0.0

$$$$
>  <compound>
CCc1cc2c(c3c1CCCC3=O)CC1(C2)Cc2cc(CC)c3c(c2C1)C(=O)CCC3

>  <qualitative label>
0.0

$$$$
>  <compound>
C=CC(=O)N1C/C(=C\c2ccc(F)cc2)C(=O)/C(=C/c2ccc(F)cc2)C1

>  <qualitative label>
1.0

$$$$
>  <compound>
CCN(CC)CCNc1ccc2nnn3c4ccc(C)cc4c(=O)c1c23

>  <qualitative label>
0.0

$$$$
>  <compound>
Cc1noc(-c2ccc(C(=O)O)[nH]2)c1Br

>  <qualitative label>
0.0

$$$$
>  <compound>
O=c1c2cccnc2[nH]c2ccc3[nH]ncc3c12

>  <qualitative label>
0.0

$$$$
>  <compound>
C(=N\c1cc2cc(Sc3ccccc3)ccc2[nH]1)/c1ccccc1

>  <qualitative label>
0.0

$$$$
>  <compound>
Cc1ccc(N)cc1.O=S(=O)(O)/C(=C\c1ccccc1)c1ccccc1

>  <qualitative label>
0.0

$$$$
>  <compound>
COc1cc2c(c3oc(-c4ccc5c(c4)OCO5)c(O)c(=O)c13)CCC(C)(C)O2

>  <qualitative label>
0.0

$$$$
>  <compound>
COC(=O)/C(=N\N)C(C(=O)C(=O)Nc1nnc(S)[nH]1)c1nc2ccc([N+](=O)[O-])cc2nc1O (stereo not drawn)

>  <qualitative label>
0.0

$$$$
>  <compound>
C[C@H](NC(=O)c1ccc(CNC(=O)/C=C/c2cccc(Oc3ccccc3)c2)cc1)c1ccccc1

>  <qualitative label>
0.0

$$$$
>  <compound>
CCCCC/C=C1\CC(CO)(COC(=O)CC(C(C)C)C(C)C)OC1=O (stereo not drawn)

>  <qualitative label>
0.0

$$$$
>  <compound>
COc1ccc(C2=NOC(N)(c3ccc(OC)cc3)C2)cc1 (stereo not drawn)

>  <qualitative label>
0.0

$$$$
>  <compound>
Clc1ccc2c(NCCNC3CCCCC3)ccnc2c1

>  <qualitative label>
0.0

$$$$
>  <compound>
CC(=O)Oc1cc2c(cc1OC(C)=O)OCC(c1ccc(C)cc1)C2 (stereo not drawn)

>  <qualitative label>
0.0

$$$$
>  <compound>
COC(=O)C1(C)CCc2c(ccc3ccccc23)C1=O (stereo not drawn)

>  <qualitative label>
0.0

$$$$
>  <compound>
O=C(O)C1C=CCN1C(=O)C1C=CCN1C(=O)C1C=CCN1 (stereo not drawn) (H-[ΔPro]-[ΔPro]-[ΔPro]-OH; configuration not given here)

>  <qualitative label>
0.0

$$$$
>  <compound>
COc1ccc(N2C(=O)C3c4[nH]c5ccccc5c4C4CCCCCCCCCC4C3C2=O)cc1 (stereo not drawn)

>  <qualitative label>
0.0

$$$$
>  <compound>
C=C(Br)C(C)(Br)CCC(Br)C(C)(C)Br (stereo not drawn)

>  <qualitative label>
0.0

$$$$
>  <compound>
CN(C)/C=N/CCN1CCOCC1

>  <qualitative label>
0.0

$$$$
>  <compound>
O=C1C2C(C(=O)N1c1ccccc1)C1(Br)c3ccccc3C2(Br)C2C(=O)N(c3ccccc3)C(=O)C21 (stereo not drawn)

>  <qualitative label>
0.0

$$$$
>  <compound>
Cn1c(=O)c2sc3cc4c(cc3c2c2ccccc21)sc1c(=O)n(C)c2ccccc2c14

>  <qualitative label>
0.0

$$$$
>  <compound>
CCNCC(=O)O[C@]1(CC)C(=O)OCc2c1cc1n(c2=O)Cc2cc3ccccc3nc2-1

>  <qualitative label>
1.0

$$$$
>  <compound>
CCOC(=O)C(NC(=O)CC)(Nc1ccccc1F)C(F)(F)F (stereo not drawn)

>  <qualitative label>
0.0

$$$$
